system: K562; assay: NCI tumour cell line growth inhibition, 48 h
Activity calls are given as the source filed them. Rule as the data show it: active = GI50 up to about 1.1 µM and inactive = higher.
quantity_name: GI50

Ask: # GI50 lookup, item CCC1=C(C(C)=O)[C@@H]2CCCCC[C@@H](C(=O)OC)C2C1=O (stereo not given in full)
Result: > 100 µM (inactive)

Ask: # GI50 lookup, item CN(C)CCNC(=O)c1cccc2c1nc(-c1ccncc1)c1ccccc12
Result: 3.14 µM (inactive)

Ask: # GI50 lookup, item C#CCN(N=O)C(=O)NC(CCCCNC(=O)OCc1ccccc1)C(=O)OCc1ccccc1 (stereo not given)
Result: 20.5 µM (inactive)

Ask: # GI50 lookup, item CC1C2=CC=C(O2)C(C)(C)C2=CC=C(O2)C(C)(C)C2=CC=C(O2)C(C)(C)C2=CC=C1O2
Result: > 100 µM (inactive)

Ask: # GI50 lookup, item CC1(C)CC2(C)CC1CC2O (stereo not given)
Result: > 100 µM (inactive)

Ask: # GI50 lookup, item C[C@H](CCC(=O)O)[C@H]1CC[C@H]2[C@@H]3[C@H](O)C[C@@H]4C[C@H](O)CC[C@]4(C)[C@H]3C[C@H](O)[C@]12C
Result: > 100 µM (inactive)

Ask: # GI50 lookup, item COc1ccc(C(=O)Oc2c(C#N)sc3c2c(=O)n(-c2ccccc2)c(=S)n3-c2ccccc2)cc1
Result: 30.3 µM (inactive)

Ask: # GI50 lookup, item Cc1cc(=O)n2nc(CN3CCCCC3)sc2n1
Result: > 100 µM (inactive)

Ask: # GI50 lookup, item N=C(N)N/N=C\c1c(-c2ccccc2)nc2sccn12
Result: 17.3 µM (inactive)

Ask: # GI50 lookup, item CCN(CC)Cc1sc2nc3ccccc3n2c1-c1ccc(OC)cc1
Result: 3.22 µM (inactive)
